Experimental target: T1, human IL-11 (AAH12506.1, Pro22-Leu199) (human, UniProt P20809 22-199)
T1 construct: The range Pro22-Leu199 counts on AAH12506.1; The Octet runs say only 'human IL-11'; also called hIL-11
T1 chain: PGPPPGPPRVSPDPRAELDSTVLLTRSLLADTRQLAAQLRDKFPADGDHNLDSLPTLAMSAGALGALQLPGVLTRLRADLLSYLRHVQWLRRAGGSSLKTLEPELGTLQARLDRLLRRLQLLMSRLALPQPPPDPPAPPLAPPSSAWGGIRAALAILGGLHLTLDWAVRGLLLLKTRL
Test summary: BLI (Octet), antibody captured, human IL-11 in solution
Measured attribute: Kd (nM)

[[record]]
binder = "hz8C8-VHm6 + hz8C8-VLm7 (antibody, human IgG1, kappa, V domains shown, human IgG1 constant regions) VH: EVQLVESGGGLVQPGGSLRLSCAASGFTFSSFGMHWVRQAPGKGLEWVAYITPGSSTIYYADTVKGRFTISRDNAKNSLYLQMNSLRAEDTAVYYCAREYYSYDEGFAYWGQGTLVTVSS VL: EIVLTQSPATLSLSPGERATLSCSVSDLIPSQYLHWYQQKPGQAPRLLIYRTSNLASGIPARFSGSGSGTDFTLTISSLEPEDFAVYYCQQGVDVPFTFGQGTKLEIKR"
recorded_number = 0.156

[[record]]
binder = "hz8C8-VHm1 + hz8C8-VLm7-m4 (antibody, human IgG1, kappa, V domains shown, human IgG1 constant regions) VH: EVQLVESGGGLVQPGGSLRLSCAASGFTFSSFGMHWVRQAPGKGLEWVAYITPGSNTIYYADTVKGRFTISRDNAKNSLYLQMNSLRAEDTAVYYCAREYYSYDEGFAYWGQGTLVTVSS VL: EIVLTQSPATLSLSPGERATLSCSVSDLIPSQYLHWYQQKPGQAPRLLIYRTSNRASGIPARFSGSGSGTDFTLTISSLEPEDFAVYYCQQGVDVPFTFGQGTKLEIKR"
recorded_number = 0.178

[[record]]
binder = "hz8C8-VHm1-m3 + hz8C8-VLm7-m1 (antibody, human IgG1, kappa, V domains shown, human IgG1 constant regions) VH: EVQLVESGGGLVQPGGSLRLSCAASGFTFSSFGMHWVRQAPGKGLEWVAYITPGSNTIYYADTVKGRFTISRDNAKNSLYLQMNSLRAEDTAVYYCAREYSSYDEGFAYWGQGTLVTVSS VL: EIVLTQSPATLSLSPGERATLSCSVSDLIPSQYLHWYQQKPGQAPRLLIYRASNLASGIPARFSGSGSGTDFTLTISSLEPEDFAVYYCQQGVDVPFTFGQGTKLEIKR"
recorded_number = 0.0609

